Reference source: patent US20260234157A1

- ASSAY_TARGET: AR protein (Homo sapiens)
- Construct: degradation activity of the compounds disclosed in the present disclosure on AR protein in VCaP cells; host or cells: VCaP
- Sequence (P10275 whole entry): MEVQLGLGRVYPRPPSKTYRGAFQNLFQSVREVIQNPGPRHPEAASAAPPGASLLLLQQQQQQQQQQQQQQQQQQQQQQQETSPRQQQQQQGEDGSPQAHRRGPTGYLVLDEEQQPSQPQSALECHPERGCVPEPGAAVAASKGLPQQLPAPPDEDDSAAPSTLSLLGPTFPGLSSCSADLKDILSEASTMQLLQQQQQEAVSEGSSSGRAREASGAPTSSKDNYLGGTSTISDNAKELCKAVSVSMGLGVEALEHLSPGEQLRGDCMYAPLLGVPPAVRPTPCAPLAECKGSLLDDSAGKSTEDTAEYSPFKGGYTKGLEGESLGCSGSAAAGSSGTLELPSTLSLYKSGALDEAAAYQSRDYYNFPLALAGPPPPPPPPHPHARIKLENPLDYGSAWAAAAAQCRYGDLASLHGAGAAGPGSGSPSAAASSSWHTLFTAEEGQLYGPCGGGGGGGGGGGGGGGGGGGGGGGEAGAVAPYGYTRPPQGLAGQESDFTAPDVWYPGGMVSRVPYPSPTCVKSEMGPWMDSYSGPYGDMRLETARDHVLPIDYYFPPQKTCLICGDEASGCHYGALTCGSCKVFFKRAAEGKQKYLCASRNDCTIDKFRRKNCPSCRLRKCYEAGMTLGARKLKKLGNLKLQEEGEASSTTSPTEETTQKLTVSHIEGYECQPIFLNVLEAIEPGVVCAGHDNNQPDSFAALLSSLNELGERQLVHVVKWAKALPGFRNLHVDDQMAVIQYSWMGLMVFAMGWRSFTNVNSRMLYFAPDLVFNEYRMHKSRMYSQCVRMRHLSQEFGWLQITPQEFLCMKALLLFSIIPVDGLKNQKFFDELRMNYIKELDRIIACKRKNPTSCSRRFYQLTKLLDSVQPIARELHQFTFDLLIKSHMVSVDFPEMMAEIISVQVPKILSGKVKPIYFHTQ
- PROTOCOL_TEXT: Degradation of AR protein in VCaP cells (Western blot)
- Format: cell-based
- ASSAY_CONDITIONS: compound at 10 nM, 8 hours, read-out: Degradation rate of the AR protein in VCaP cells, 10 nM (%)
Criterion: inhibition at 0.01 µM meeting or surpassing 50%. Met: fulfilled. Not met: not fulfilled.

COMPOUND	CLASS_ASSIGNMENT
N#Cc1ccc(O[C@H]2CC[C@H](NC(=O)c3ccc(N4CC[C@H](CN5CCC6(CC5)COc5cc7c(cc56)C(=O)N(C5CCC(=O)NC5=O)C7=O)C4)nn3)CC2)cc1Cl (some centres unmarked)	fulfilled
COc1cc(OC2CCC(NC(=O)c3cnc(N4CCC(C)(CN5CCC6(CC5)COc5c6ccc6c5C(=O)N(C5CCC(=O)NC5=O)C6=O)CC4)nc3)CC2)ccc1C#N (centres unmarked)	not fulfilled
N#Cc1ccc(O[C@H]2CC[C@H](NC(=O)c3ccc(N4CCC5(CCC(N6CCC7(CC6)COc6ccc8c(c6C7)C(=O)N(C6CCC(=O)NC6=O)C8)CC5)CC4)nn3)CC2)cc1Cl (some centres unmarked)	not fulfilled
N#Cc1ccc(O[C@H]2CC[C@H](NC(=O)c3ccc(N4CCC(CN5CCC6(CC5)COc5c6ccc6c5CN(C5CCC(=O)NC5=O)C6=O)(C5CC5)CC4)nn3)CC2)cc1Cl (some centres unmarked)	fulfilled
COc1cc(O[C@H]2C(C)(C)[C@H](NC(=O)c3ccc(N4CCC(C)(CN5CCC6(CC5)COc5c6ccc6c5CN(C5CCC(=O)NC5=O)C6=O)CC4)cc3)C2(C)C)ccc1C#N (some centres unmarked)	not fulfilled
